assay: in vitro; settings: human, plasma
MEASURED_PARAMETER: fraction unbound

GET /values?readout=fraction unbound&item= O=C(O)c1ccccc1O [SA, salicylic acid]
0.029 to 0.18

###

assay: in vivo; details: human
MEASURED_PARAMETER: NOAEL (mg/kg/day)
Express it in mg/kg/day; write the number only.

Look up NOAEL: O=C(OCc1ccccc1)c1ccccc1O [BSal, benzyl salicylate]
123
